Tested on: HS 578T breast
TEST NAME: NCI tumour cell line growth inhibition, 48 h
# TGI listing for each entry below

MOLECULE	TGI
COc1ccc(C2=Nn3c(nnc(Cc4ccc(Cl)cc4)c3=O)SC2)cc1	> 100 µM
O=C1CCCC2(c3ccccc3)Nc3ccccc3N12 (configuration not stated)	> 100 µM
CS(=O)(=O)c1cc(=O)c2ccccc2s1	68.8 µM
NC(N)=N/N=C/c1c(-c2cccc([N+](=O)[O-])c2)nc2n1CCS2	32.1 µM
O=C1OC(c2ccco2)=N/C1=C\c1cccc([N+](=O)[O-])c1	> 100 µM
COc1ccc(CCN2CCN(CCc3ccc(OC)cc3)CC2)cc1	> 100 µM
O=C(O)Cc1cccc2c1OC(c1ccccc1)C(Cl)(C(=O)c1ccccc1)C2=O (configuration not stated)	99.6 µM
CC(C)(C)C1=CC(=C(c2ccc(-c3c4nc(c(-c5ccc(C(=C6C=C(C(C)(C)C)C(=O)C(C(C)(C)C)=C6)c6cc(C(C)(C)C)c(O)c(C(C)(C)C)c6)cc5)c5ccc([nH]5)c(-c5ccc(C(=C6C=C(C(C)(C)C)C(=O)C(C(C)(C)C)=C6)c6cc(C(C)(C)C)c(O)c(C(C)(C)C)c6)cc5)c5nc(c(-c6ccc(C(=C7C=C(C(C)(C)C)C(=O)C(C(C)(C)C)=C7)c7cc(C(C)(C)C)c(O)c(C(C)(C)C)c7)cc6)c6ccc3[nH]6)C=C5)C=C4)cc2)c2cc(C(C)(C)C)c(O)c(C(C)(C)C)c2)C=C(C(C)(C)C)C1=O	> 100 µM
CCn1c(SCC(=O)NNC(=S)Nc2ccc(C)cc2)nc2ccccc2c1=O	> 100 µM
Cc1ccc(NC(=S)N/N=C(/c2ccccc2)c2ccccn2)cc1	81.8 µM
COc1cc2c3c(n(CCNCCCNCCn4c5c(c6cc(OC)c(OC)cc6c4=O)C(=O)c4ccccc4-5)c(=O)c2cc1OC)-c1ccccc1C3=O	> 100 µM
c1csc(-c2cc(-c3cccs3)c(-c3ccsc3)s2)c1	> 100 µM
COc1cc(/C=C2\CN(C)CC3=C2NC(=S)NC3c2cc(OC)c(OC)c(OC)c2)cc(OC)c1OC (configuration not stated)	> 100 µM
COC(=O)C12C3C4C1C1C2C3C41NC(=O)c1csc([C@@H](C[C@H](C(C)C)N(C)C(=O)[C@@H](NC(=O)[C@H]2CCCCN2C)C2CC2)OC(C)=O)n1 (some centres not stated)	> 33.3 µM
Cc1ccc(-c2c3nc(c(-c4ccc(C)cc4)c4ccc([nH]4)c(-c4ccc(OCC5COC(C)(C)O5)cc4)c4nc(c(-c5ccc(C)cc5)c5ccc2[nH]5)C=C4)C=C3)cc1 (configuration not stated)	> 100 µM
CCN(CC)CC(=O)O[C@]1(CC)C(=O)OCc2c1cc1n(c2=O)Cc2cc3ccccc3nc2-1	> 100 µM
COc1ccc(-n2cc(-c3cc(OC)c(OC)c(OC)c3)[nH]c2=O)cc1Cl	> 100 µM
